Data origin: patent US20240425587A1

target: T1, human PILRA, G78 variant, ectopically expressed on 293 cells (human, UniProt Q9UKJ1 20-303); assay: flow cytometry; blocking of NPDC1-hIgG1 binding to 293 cells expressing human PILRA G78
T1 construct: the cells are labelled G78; also called hA G78 OE; hA
T1 sequence (Q9UKJ1 other isoform, or with tags, fused parts or gaps mutant): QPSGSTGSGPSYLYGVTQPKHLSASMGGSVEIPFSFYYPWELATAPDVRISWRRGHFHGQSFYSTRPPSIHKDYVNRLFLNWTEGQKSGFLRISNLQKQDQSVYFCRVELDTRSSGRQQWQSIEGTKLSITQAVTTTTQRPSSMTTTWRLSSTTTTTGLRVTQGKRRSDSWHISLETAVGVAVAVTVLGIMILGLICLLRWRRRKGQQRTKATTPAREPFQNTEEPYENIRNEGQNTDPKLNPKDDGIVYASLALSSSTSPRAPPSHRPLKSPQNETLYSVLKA
value-type: IC50 (µg/mL)

[
  {
    "binder": "E5 (antibody, V domains shown) VH: QVQLVQSGAEVKKPGSSVKVSCKASGYTFTSYGINWVRQAPGQGLEWMGWINPNSGDTLYAQNFQGRVTITADESTSTAYMELSSLRSEDTAVYYCARGPEPYWYFDLWGRGTLVTVSS VL: EIVMTQSPATLSVSPGERATLSCRASQNIDSRFLAWYQQKPGQAPRLLIYGASTRATGIPARFSGSGSGTEFTLTISSLQSEDFAVYYCQQSFSTPLTFGGGTKVEIK",
    "number": 0.22
  },
  {
    "binder": "A1 (antibody, V domains shown, phage campaign) VH: QVQLVQSGAEVKKPGSSVKVSCKASGYTFINHDINWVRQAPGQGLEWMGWMNPNSGNTGYAQKFQGRVTITADESTSTAYMELSSLRSEDTAVYYCARDRRGSYYGLMDWFDPWGQGTLVTVSS VL: DIQMTQSPSSLSASVGDRVTITCRASQSISRWLAWYQQKPGKAPKLLIYDASNLETGVPSRFSGSGSGTDFTLTISSLQPEDFATYYCQQSYSTPSFGQGTKVEIK",
    "number": 1.9
  },
  {
    "binder": "A15 (antibody, V domains shown, phage campaign) VH: QVQLVQSGAEVKKPGASVKVSCKASGGTFSNYGLTWVRQAPGQGLEWMGWINLNSGGTYYAQKFQGRVTMTRDTSTSTVYMELSSLRSEDTAVYYCARDRYSSGWYEGDAFDIWGQGTMVTVSS VL: DIQMTQSPSSLSASVGDRVTITCRASQGISNWLAWYQQKPGKAPKLLIYAASSLQSGVPSRFSGSGSGTDFTLTISSLQPEDFATYYCQQSYSTPWTFGPGTKVDIK",
    "number": 0.27
  }
]
